experimental-system: UniProtKB P97639
Sequence (P97639 whole entry): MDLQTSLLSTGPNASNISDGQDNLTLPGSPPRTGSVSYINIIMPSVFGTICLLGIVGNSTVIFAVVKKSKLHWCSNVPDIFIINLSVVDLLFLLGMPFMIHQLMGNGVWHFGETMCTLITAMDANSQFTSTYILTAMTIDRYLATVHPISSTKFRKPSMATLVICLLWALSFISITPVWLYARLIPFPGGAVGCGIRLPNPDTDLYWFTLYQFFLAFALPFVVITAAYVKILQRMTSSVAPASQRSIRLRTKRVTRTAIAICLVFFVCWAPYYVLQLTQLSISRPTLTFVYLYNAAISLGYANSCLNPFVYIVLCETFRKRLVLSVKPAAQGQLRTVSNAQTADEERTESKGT
assay-explanation: Radioligand binding assay at cloned rat MCH1 receptor ([3H] Compound A)
Set-up: host or cells: Peak rapid 293 (Peakr293) cells, transient calcium phosphate transfection, membranes
experimental-conditions: cloned rat MCH1 receptor; 0.08 nM [3H] Compound A; Peakr293 cell membranes; read-out: Ki (nM) rMCH1
property-name: log10 of Ki (log10 of the value in nM)

[
  {
    "compound": "Cc1ccc2[nH]c(-c3ccccc3F)c(CCCN3CCC(c4cccc(NC(=O)C(C)C)c4)CC3)c2c1",
    "property-name": "log10 of Ki",
    "experimental-value": 0.48
  },
  {
    "compound": "CC(C)C(=O)Nc1cccc(C2CCN(CCCCC(O)c3ccc(Cl)cc3)CC2)c1 (stereo not shown)",
    "property-name": "log10 of Ki",
    "experimental-value": 1.90
  },
  {
    "compound": "CC(C)C(=O)Nc1cccc(C2CCN(CCCc3c(-c4ccc(Cl)cc4)n(-c4ccccc4)c4ccccc34)CC2)c1",
    "property-name": "log10 of Ki",
    "experimental-value": 1.88
  },
  {
    "compound": "Cc1cccc2c(CCCN3CCC(c4cccc(NC(=O)C(C)C)c4)CC3)c(-c3cccc(F)c3)[nH]c12",
    "property-name": "log10 of Ki",
    "experimental-value": 0.72
  },
  {
    "compound": "CC(C)C(=O)Nc1cccc(C2CCN(Cc3cn(-c4ccccc4[N+](=O)[O-])c4ccccc34)CC2)c1",
    "property-name": "log10 of Ki",
    "experimental-value": 1.25
  },
  {
    "compound": "CC(C)C(=O)Nc1cccc(C2CCN(CCCNC(=O)Nc3ccc(Cl)c(Cl)c3)CC2)c1",
    "property-name": "log10 of Ki",
    "experimental-value": 1.93
  },
  {
    "compound": "O=C(Nc1cccc(C2CCN(CCCCSc3ccccc3)CC2)c1)C1CC1",
    "property-name": "log10 of Ki",
    "experimental-value": 1.71
  },
  {
    "compound": "CCC(=O)Nc1cccc(C2CCN(Cc3cn(-c4ccc(Cl)cc4)c4cc(Cl)ccc34)CC2)c1",
    "property-name": "log10 of Ki",
    "experimental-value": 1.09
  },
  {
    "compound": "Cc1[nH]c2ccc(Cl)cc2c1CN1CCC(c2cccc(NC(=O)C(C)C)c2)CC1",
    "property-name": "log10 of Ki",
    "experimental-value": 2.33
  },
  {
    "compound": "CC(=O)c1ccccc1OC(CCCCN1CCC(c2cccc(NC(=O)C(C)C)c2)CC1)c1ccccc1 (stereo not shown)",
    "property-name": "log10 of Ki",
    "experimental-value": 2.78
  },
  {
    "compound": "O=C(Nc1cccc(C2CCN(Cc3cn(-c4ccccc4)c4ccccc34)CC2)c1)C1CC1",
    "property-name": "log10 of Ki",
    "experimental-value": 1.03
  },
  {
    "compound": "CCCS(=O)(=O)N[C@@H](CCN1CCC(c2cccc(NC(=O)C(C)C)c2)CC1)c1ccccc1",
    "property-name": "log10 of Ki",
    "experimental-value": 2.16
  },
  {
    "compound": "COc1ccc2[nH]c(-c3ccccc3)c(CN3CCC(c4cccc(NC(=O)C(C)C)c4)CC3)c2c1",
    "property-name": "log10 of Ki",
    "experimental-value": 2.74
  },
  {
    "compound": "CC(C)C(=O)Nc1cccc(C2CCN(CCCc3ccncc3)CC2)c1",
    "property-name": "log10 of Ki",
    "experimental-value": 2.96
  },
  {
    "compound": "CCC(=O)Nc1cccc(C2CCN(CCCCCSc3ccccc3)CC2)c1",
    "property-name": "log10 of Ki",
    "experimental-value": 1.82
  },
  {
    "compound": "CC(C)C(=O)Nc1cccc(C2CCN(CCCCC(Oc3cc(C(F)(F)F)ccc3F)c3ccc(C(F)(F)F)cc3)CC2)c1 (stereo not shown)",
    "property-name": "log10 of Ki",
    "experimental-value": 1.48
  }
]
